biological target: Recombinant human his-tagged IGF 1R extracellular domain protein (human) (UniProt P08069); experiment: SPR, captured antibody, dissociation at pH 6
Some binders, each annotated with its measured kon.
Show the value, then the unit it is measured in.

Here is how some binders turned out for kon.
BINDER	kon
VRDN-03103 (antibody, V domains shown) VH: QVQLVESGGGVVQPGRSLRLSCAASGFTFSDYTMHWVRQAPGKGLEWVAIIWFDGSSKYYPGSVKGRFTISRDNSKNTLYLQMNSLRAEDTAVYYCARELGRRYFDIWGRGTLVTVSS VL: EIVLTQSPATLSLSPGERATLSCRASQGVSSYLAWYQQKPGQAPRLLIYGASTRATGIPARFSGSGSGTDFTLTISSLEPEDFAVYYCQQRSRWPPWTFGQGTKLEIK	1.5e+06 M⁻¹ s⁻¹
VRDN-03105 (antibody, V domains shown) VH: QVQLVESGGGVVQPGRSLRLSCAASGFTFSDHYMDWVRQAPGKGLEWVAIIWFDGSSKYYVDSVKGRFTISRDNSKNTLYLQMNSLRAEDTAVYYCARELGRRYFDIWGRGTLVTVSS VL: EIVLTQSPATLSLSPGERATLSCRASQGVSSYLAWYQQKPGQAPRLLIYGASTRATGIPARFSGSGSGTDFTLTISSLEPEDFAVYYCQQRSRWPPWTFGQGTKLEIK	141000 M⁻¹ s⁻¹

Note: attention shifts to another entry.
Query block: Which kon value is on record for VRDN-03053 (antibody, V domains shown) VH: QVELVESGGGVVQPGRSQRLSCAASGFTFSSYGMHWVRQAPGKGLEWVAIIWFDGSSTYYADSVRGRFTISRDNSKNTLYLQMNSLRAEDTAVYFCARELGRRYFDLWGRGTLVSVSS VL: EIVLTQSPATLSLSPGERATLSCRASQSVSSYLAWYQQKPGQAPRLLIYDASKHATGIPARFSGSGSGTDFTLTISSLEPEDFAVYYCQQRSKWPPWTFGQGTKVESK ?
Result block: 95500 M⁻¹ s⁻¹
